B1: tRNA (parent)
chain: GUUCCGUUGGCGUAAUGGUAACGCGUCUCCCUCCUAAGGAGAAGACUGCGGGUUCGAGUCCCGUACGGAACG

variants of: B1; assay: yeast fitness relative to wild type (ratio to wild type); higher = fitter; tRNA-Arg(CCU), competitive growth, 37 C, YPD
This sample holds only a part of the variants without activity.
Below, each entry is listed alongside its reported yeast fitness.

Mutations	yeast fitness
C4G U8C G25A A42U A69C	≤ 0.5
A37C A42G G44A G67A	≤ 0.5
A14U C29U A37U C66U	≤ 0.5
A21C C24G G68C	≤ 0.5
G10C C34U A65G	≤ 0.5
U8A C11U A15G G63C	≤ 0.5
A14G G17C G39A A69C	≤ 0.5
C46G A57C G58A G67A	≤ 0.5
C5G U26C C55G U59A U64G	≤ 0.5
G18C C49U G56C G58A	≤ 0.5
G9C U16G C66G	≤ 0.5
C4A C27G C34G A37U U64A	≤ 0.5
C24G C34U U53C C55G C62A	≤ 0.5
C5U U16A C33U C61G A70U	≤ 0.5
G6A A45U G48A C55A	≤ 0.5
G18C C24G U35C G50C C55G	≤ 0.5
C24U A36G G63C	≤ 0.5
G18A G23A A43C U59A	≤ 0.5
U3A G6A G12A A20G C22G U26A G48C G68U	≤ 0.5
G9A A21C G25C	0.565
A43G C61U A65U	0.567
C30G A43C C60G C66U	≤ 0.5
U3A G17C A20C U28A	≤ 0.5
U19C C55A C66A	≤ 0.5
C5A C27A C34G	0.507
G56A C62G	0.643
A45U U53C G67A A69C	0.635
C29U U32G A43U G44C U53C	≤ 0.5
G50A G58C C66U	0.649

Source listed as the RNAGym collection of RNA variant scans (doi:10.1126/science.aae0568).
